tested on: SK-MEL-5 melanoma; assay: NCI-60 one-dose screen, 48 h; details: 10 µM unless noted
Compounds without any hit were thinned out: in the full panel of roughly 83,000, 20% have a hit. Activity calls are given as the source filed them. How the source made its calls: active means growth percent below 10; inactive means the rest.
Reply using exactly one outcome from 1 = active, 0 = inactive

Solved cases below.
Cc1ccc(-c2c3c(N)c4c(nc3nc3c2c(C)nn3-c2ccccc2)CCC4)cc1 ... 0
CCOc1cc(/C=C/C(=O)C(C(=O)/C=C/c2ccc(OC(=O)CNc3nnc(C)s3)c(OCC)c2)C(=O)CNc2nnc(C)s2)ccc1OC(=O)CNc1nnc(C)s1 ... 1

Continue with the molecule presented below.
Task item: How did this test come out for `COc1c(O)cc2c(c1CC=C(C)C)OC(=O)c1c(cc(O)c(CC=C(C)C)c1O)O2` ?
Reply: 0
